System: JHH-7 (Hepatocellular Carcinoma);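 also: after 72 h of two-drug dosing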
Experiment: Bliss excess, mean over the matrix (fraction); higher = more synergy
RESULT TYPE: Bliss excess
Answers are plain numbers.

For every item below, please supply its Bliss excess.
1. Cn1cnc2c(F)c(Nc3ccc(Br)cc3Cl)c(C(=O)NOCCO)cc21 [Selumetinib] + CCN(CCO)CCCOc1ccc2c(Nc3cc(CC(=O)Nc4cccc(F)c4)[nH]n3)ncnc2c1 [AZD2811] (first compound max 10 µM, 7x7, partner max 1 µM)
2. COc1cccc(OCCCN)c1-c1cc(Nc2cnc(C#N)cn2)n[nH]1 [Prexasertib] + CCc1c2c(nc3ccc(O)cc13)-c1cc3c(c(=O)n1C2)COC(=O)[C@]3(O)CC [SN-38] (first compound max 1 µM, 7x7, partner max 0.3 µM)

OUTPUT:
-0.0518
0.116

For every item below, please supply its Bliss excess.
1. Cc1c2c(nn1C)CSCc1cc(n(C)n1)CSc1cc(c3ccccc3c1)OCCCc1c(C(=O)O)n(C)c3c-2c(Cl)ccc13 [AZD5991] + Nc1ccn([C@@H]2O[C@H](CO)[C@@H](O)C2(F)F)c(=O)n1 [Gemcitabine] (first compound max 1 µM, 7x7, partner max 0.3 µM)
2. COc1nnc2ccc(N3CCC(c4ccc(OCCN5CCN(C)C(=O)[C@H]5C)cc4)CC3)nn12 [AZD5153] + C[C@@H]1COCCN1C2=NC(=NC(=C2)C3(CC3)[S@](=N)(=O)C)C4=C5C=CNC5=NC=C4 [AZD6738] (first compound max 1 µM, 7x7, partner max 10 µM)
3. CN(CCO)CC[C@H](CSc1ccccc1)Nc1ccc(S(=O)(=O)NC(=O)c2ccc(N3CCC([C@@H](O)c4ccccc4-c4ccc(Cl)cc4)CC3)cc2)cc1S(=O)(=O)C(F)(F)F [AZD4320] + C[C@@H]1COCCN1C2=NC(=NC(=C2)C3(CC3)[S@](=N)(=O)C)C4=C5C=CNC5=NC=C4 [AZD6738] (first compound max 1 µM, 7x7, partner max 10 µM)
4. Cc1nc(Nc2ncc(C(=O)Nc3c(C)cccc3Cl)s2)cc(N2CCN(CCO)CC2)n1 [Dasatinib] + CC(=O)Nc1cccc(-n2c(=O)n(C3CC3)c(=O)c3c(Nc4ccc(I)cc4F)n(C)c(=O)c(C)c32)c1 [Trametinib] (first compound max 2 µM, 7x7, partner max 1 µM)
5. CC(=O)c1c(C)c2cnc(Nc3ccc(N4CCNCC4)cn3)nc2n(C2CCCC2)c1=O [Palbociclib] + Cn1cnc2c(F)c(Nc3ccc(Br)cc3Cl)c(C(=O)NOCCO)cc21 [Selumetinib] (first compound max 10 µM, 7x7, partner max 10 µM)

OUTPUT:
1: -0.0114; 2: 0.04; 3: 0.0174; 4: -0.0394; 5: -0.0039

====

Test system: LC4-1 (B-Lymphoblastic Leukemia)
Experiment: combination Emax (second highest fraction inhibited in the dose matrix, 72 h); higher = more inhibition; extreme values may be limits of the assay
RESULT TYPE: combination Emax
One number for each entry.

Sample records with combination Emax:
COMPOUND: CS(=O)(=O)CCNCc1ccc(-c2ccc3ncnc(Nc4ccc(OCc5cccc(F)c5)c(Cl)c4)c3c2)o1 [Lapatinib] + Cn1cnc2c(F)c(Nc3ccc(Br)cc3Cl)c(C(=O)NOCCO)cc21 [Selumetinib] (first compound max 10 µM, 7x7, partner max 10 µM)
combination Emax: 0.954

COMPOUND: CC1(C)CCC(CN2CCN(c3ccc(C(=O)NS(=O)(=O)c4ccc(NCC5CCOCC5)c([N+](=O)[O-])c4)c(Oc4cnc5[nH]ccc5c4)c3)CC2)=C(c2ccc(Cl)cc2)C1 [Venetoclax] + COc1cc(Nc2ncc3c(n2)-c2ccc(Cl)cc2C(c2c(F)cccc2OC)=NC3)ccc1C(=O)O [Alisertib] (first compound max 1 µM, 7x7, partner max 10 µM)
combination Emax: 1

Field: next compound
INPUT: Please supply the value of reported combination Emax for the item CN(CCO)CC[C@H](CSc1ccccc1)Nc1ccc(S(=O)(=O)NC(=O)c2ccc(N3CCC([C@@H](O)c4ccccc4-c4ccc(Cl)cc4)CC3)cc2)cc1S(=O)(=O)C(F)(F)F [AZD4320] + Nc1ccn([C@@H]2O[C@H](CO)[C@@H](O)C2(F)F)c(=O)n1 [Gemcitabine] (first compound max 1 µM, 7x7, partner max 0.3 µM)
OUTPUT: 1
